The reported numbers originate from paper PMC6045484.

Tested on: L. donovani promastigotes
Test: in vitro antileishmanial activity, alamarBlue assay
Format: cell-based, Leishmania donovani
Details: Leishmania donovani, 48 h, read-out: L. donovani IC50, promastigotes, 48 h
Class key for IC50 values: small value = under 5 µg/mL, mid value = from 5 µg/mL up to 10 µg/mL, large value = 10 µg/mL and over

[[record]]
compound = "CCCCCCCCOc1c(OC)cc(NC(C)CCCNC(=O)C(N)Cc2cc3ccccc3[nH]2)c2nc(C(C)(C)C)ccc12 (stereo not shown)"
target_entity = "L. donovani promastigotes"
class = "mid value"

[[record]]
compound = "CCCCCCOc1c(OC)cc(NC(C)CCCNC(=O)C(N)CCSC)c2nc(C(C)(C)C)ccc12 (stereo not shown)"
target_entity = "L. donovani promastigotes"
class = "mid value"

[[record]]
compound = "CCCCCCCCOc1c(OC)cc(NC(C)CCCN)c2nc(C(C)(C)C)ccc12 (stereo not shown)"
target_entity = "L. donovani promastigotes"
class = "mid value"

[[record]]
compound = "CCCCCCOc1c(OC)cc(NC(C)CCCNC(=O)C(C)N)c2nc(C(C)(C)C)ccc12 (stereo not shown)"
target_entity = "L. donovani promastigotes"
class = "large value"

[[record]]
compound = "C[C@@H]1[C@H](O)[C@@H](C)/C=C/C=C/C=C/C=C/C=C/C=C/C=C/[C@H](O[C@@H]2O[C@H](C)[C@@H](O)[C@H](N)[C@@H]2O)C[C@@H]2O[C@](O)(C[C@@H](O)C[C@@H](O)[C@H](O)CC[C@@H](O)C[C@@H](O)CC(=O)O[C@H]1C)C[C@H](O)[C@H]2C(=O)O [amphotericin B (AMP), amphotericin B, reference compound]"
target_entity = "L. donovani promastigotes"
class = "small value"

[[record]]
compound = "CCCCCOc1c(OC)cc(NC(C)CCCNC(=O)C(N)C(C)CC)c2nc(C(C)(C)C)ccc12 (stereo not shown)"
target_entity = "L. donovani promastigotes"
class = "mid value"

[[record]]
compound = "CCCCCCOc1c(OC)cc(NC(C)CCCNC(=O)C(N)Cc2cnc[nH]2)c2nc(C(C)(C)C)ccc12 (stereo not shown)"
target_entity = "L. donovani promastigotes"
class = "small value"

[[record]]
compound = "CCCCCCOc1c(OC)cc(NC(C)CCCNC(=O)C(N)C(C)CC)c2nc(C(C)(C)C)ccc12 (stereo not shown)"
target_entity = "L. donovani promastigotes"
class = "large value"

[[record]]
compound = "CCCCCOc1c(OC)cc(NC(C)CCCNC(=O)C(N)Cc2ccccc2)c2nc(C(C)(C)C)ccc12 (stereo not shown)"
target_entity = "L. donovani promastigotes"
class = "small value"

[[record]]
compound = "CCCCCOc1c(OC)cc(NC(C)CCCNC(=O)C(N)CCCNC(=N)N)c2nc(C(C)(C)C)ccc12 (stereo not shown)"
target_entity = "L. donovani promastigotes"
class = "large value"

[[record]]
compound = "CCCCCOc1c(OC)cc(NC(C)CCCN)c2nc(C(C)(C)C)ccc12 (stereo not shown)"
target_entity = "L. donovani promastigotes"
class = "large value"

[[record]]
compound = "CCCCCCOc1c(OC)cc(NC(C)CCCNC(=O)C(N)Cc2cc3ccccc3[nH]2)c2nc(C(C)(C)C)ccc12 (stereo not shown)"
target_entity = "L. donovani promastigotes"
class = "large value"

[[record]]
compound = "CCCCCCCOc1c(OC)cc(NC(C)CCCNC(=O)C(N)C(C)CC)c2nc(C(C)(C)C)ccc12 (stereo not shown)"
target_entity = "L. donovani promastigotes"
class = "small value"

[[record]]
compound = "COc1cc(NC(C)CCCN)c2nc(C(C)(C)C)ccc2c1Oc1ccc(Cl)c(Cl)c1 (stereo not shown)"
target_entity = "L. donovani promastigotes"
class = "large value"

[[record]]
compound = "CCCCCCCCOc1c(OC)cc(NC(C)CCCNC(=O)C2CCCN2)c2nc(C(C)(C)C)ccc12 (stereo not shown)"
target_entity = "L. donovani promastigotes"
class = "large value"

[[record]]
compound = "CCCCCCOc1c(OC)cc(NC(C)CCCN)c2nc(C(C)(C)C)cc(C)c12 (stereo not shown)"
target_entity = "L. donovani promastigotes"
class = "small value"

[[record]]
compound = "CCCCCCOc1c(OC)cc(NC(C)CCCN)c2nc(C(C)(C)C)ccc12 (stereo not shown)"
target_entity = "L. donovani promastigotes"
class = "small value"

[[record]]
compound = "CCCCCCCCOc1c(OC)cc(NC(C)CCCNC(=O)C(N)Cc2ccccc2)c2nc(C(C)(C)C)ccc12 (stereo not shown)"
target_entity = "L. donovani promastigotes"
class = "large value"

[[record]]
compound = "CCCCCCCCOc1c(OC)cc(NC(C)CCCNC(=O)C(N)CCSC)c2nc(C(C)(C)C)ccc12 (stereo not shown)"
target_entity = "L. donovani promastigotes"
class = "mid value"

[[record]]
compound = "CCCCOc1c(OC)cc(NC(C)CCCN)c2nc(C(C)(C)C)cc(C)c12 (stereo not shown)"
target_entity = "L. donovani promastigotes"
class = "small value"

[[record]]
compound = "CCCCCOc1c(OC)cc(NC(C)CCCN)c2nc(C(C)(C)C)cc(C)c12 (stereo not shown)"
target_entity = "L. donovani promastigotes"
class = "large value"

[[record]]
compound = "CCCCCOc1c(OC)cc(NC(C)CCCNC(=O)C(N)CC(C)C)c2nc(C(C)(C)C)ccc12 (stereo not shown)"
target_entity = "L. donovani promastigotes"
class = "small value"


---

System: MRSA (ATCC33591)
Experiment: in vitro antibacterial activity
Type: cell-based, methicillin-resistant Staphylococcus aureus
Settings: Staphylococcus aureus, ATCC33591|MRSA, read-out: MIC, MRSA
Parameter: MIC. Scope: all listed entries.
Readout Name: MIC (mg/L)

[[record]]
compound = "CCCCCCOc1c(OC)cc(NC(C)CCCNC(=O)C(C)N)c2nc(C(C)(C)C)ccc12 (stereo not shown)"
target_entity = "MRSA (ATCC33591)"
units_text = "mg/L"
value_comparator = ">"
reading = 20

[[record]]
compound = "CCCCCCCOc1c(OC)cc(NC(C)CCCN)c2nc(C(C)(C)C)ccc12 (stereo not shown)"
target_entity = "MRSA (ATCC33591)"
units_text = "mg/L"
value_comparator = "="
reading = 5

[[record]]
compound = "CCCCCOc1c(OC)cc(NC(C)CCCNC(=O)C(N)CCCN)c2nc(C(C)(C)C)ccc12 (stereo not shown)"
target_entity = "MRSA (ATCC33591)"
units_text = "mg/L"
value_comparator = ">"
reading = 20

[[record]]
compound = "CCCCCCCOc1c(OC)cc(NC(C)CCCNC(=O)C(N)CCCCN)c2nc(C(C)(C)C)ccc12 (stereo not shown)"
target_entity = "MRSA (ATCC33591)"
units_text = "mg/L"
value_comparator = ">"
reading = 20

[[record]]
compound = "CCCCCOc1c(OC)cc(NC(C)CCCNC(=O)C(N)C(C)CC)c2nc(C(C)(C)C)ccc12 (stereo not shown)"
target_entity = "MRSA (ATCC33591)"
units_text = "mg/L"
value_comparator = "="
reading = 10

[[record]]
compound = "CCCCCCCOc1c(OC)cc(NC(C)CCCNC(=O)C(N)Cc2cc3ccccc3[nH]2)c2nc(C(C)(C)C)ccc12 (stereo not shown)"
target_entity = "MRSA (ATCC33591)"
units_text = "mg/L"
value_comparator = "="
reading = 5

[[record]]
compound = "CCCCCCCCOc1c(OC)cc(NC(C)CCCNC(=O)C(N)CCSC)c2nc(C(C)(C)C)ccc12 (stereo not shown)"
target_entity = "MRSA (ATCC33591)"
units_text = "mg/L"
value_comparator = "="
reading = 20

[[record]]
compound = "CCCCCCCOc1c(OC)cc(NC(C)CCCNC(=O)C(N)CCSC)c2nc(C(C)(C)C)ccc12 (stereo not shown)"
target_entity = "MRSA (ATCC33591)"
units_text = "mg/L"
value_comparator = "="
reading = 5

[[record]]
compound = "CCCCCCCOc1c(OC)cc(NC(C)CCCNC(=O)C(N)CCCN)c2nc(C(C)(C)C)ccc12 (stereo not shown)"
target_entity = "MRSA (ATCC33591)"
units_text = "mg/L"
value_comparator = ">"
reading = 20

[[record]]
compound = "CCCCCOc1c(OC)cc(NC(C)CCCN)c2nc(C(C)(C)C)cc(C)c12 (stereo not shown)"
target_entity = "MRSA (ATCC33591)"
units_text = "mg/L"
value_comparator = "="
reading = 20

[[record]]
compound = "CCCCCCCCOc1c(OC)cc(NC(C)CCCNC(=O)C(N)Cc2ccccc2)c2nc(C(C)(C)C)ccc12 (stereo not shown)"
target_entity = "MRSA (ATCC33591)"
units_text = "mg/L"
value_comparator = ">"
reading = 20

[[record]]
compound = "CCCCOc1c(OC)cc(NC(C)CCCN)c2nc(C(C)(C)C)ccc12 (stereo not shown)"
target_entity = "MRSA (ATCC33591)"
units_text = "mg/L"
value_comparator = ">"
reading = 20

[[record]]
compound = "CCCCCCOc1c(OC)cc(NC(C)CCCNC(=O)C(N)Cc2cnc[nH]2)c2nc(C(C)(C)C)ccc12 (stereo not shown)"
target_entity = "MRSA (ATCC33591)"
units_text = "mg/L"
value_comparator = "="
reading = 10

[[record]]
compound = "CCCCCCOc1c(OC)cc(NC(C)CCCNC(=O)C(N)Cc2cc3ccccc3[nH]2)c2nc(C(C)(C)C)ccc12 (stereo not shown)"
target_entity = "MRSA (ATCC33591)"
units_text = "mg/L"
value_comparator = "="
reading = 10

[[record]]
compound = "CCCCCOc1c(OC)cc(NC(C)CCCNC(=O)C(N)CCCNC(=N)N)c2nc(C(C)(C)C)ccc12 (stereo not shown)"
target_entity = "MRSA (ATCC33591)"
units_text = "mg/L"
value_comparator = "="
reading = 10

[[record]]
compound = "CCCCCCOc1c(OC)cc(NC(C)CCCNC(=O)C(N)C(C)CC)c2nc(C(C)(C)C)ccc12 (stereo not shown)"
target_entity = "MRSA (ATCC33591)"
units_text = "mg/L"
value_comparator = ">"
reading = 20

[[record]]
compound = "CCCCCCCCOc1c(OC)cc(NC(C)CCCNC(=O)C(N)C(C)CC)c2nc(C(C)(C)C)ccc12 (stereo not shown)"
target_entity = "MRSA (ATCC33591)"
units_text = "mg/L"
value_comparator = ">"
reading = 20

[[record]]
compound = "CCCCOc1c(OC)cc(NC(C)CCCNC(=O)C(N)CCCCN)c2nc(C(C)(C)C)ccc12 (stereo not shown)"
target_entity = "MRSA (ATCC33591)"
units_text = "mg/L"
value_comparator = ">"
reading = 20

[[record]]
compound = "CCCCCCCOc1c(OC)cc(NC(C)CCCNC(=O)C(N)C(C)CC)c2nc(C(C)(C)C)ccc12 (stereo not shown)"
target_entity = "MRSA (ATCC33591)"
units_text = "mg/L"
value_comparator = "="
reading = 5

[[record]]
compound = "CCCCCOc1c(OC)cc(NC(C)CCCNC(=O)C(N)Cc2ccccc2)c2nc(C(C)(C)C)ccc12 (stereo not shown)"
target_entity = "MRSA (ATCC33591)"
units_text = "mg/L"
value_comparator = "="
reading = 20

[[record]]
compound = "CCCCCOc1c(OC)cc(NC(C)CCCNC(=O)C(N)Cc2cc3ccccc3[nH]2)c2nc(C(C)(C)C)ccc12 (stereo not shown)"
target_entity = "MRSA (ATCC33591)"
units_text = "mg/L"
value_comparator = "="
reading = 5

[[record]]
compound = "CCCCCCOc1c(OC)cc(NC(C)CCCNC(=O)C(N)CCCCN)c2nc(C(C)(C)C)ccc12 (stereo not shown)"
target_entity = "MRSA (ATCC33591)"
units_text = "mg/L"
value_comparator = ">"
reading = 20

[[record]]
compound = "CCCCCCCCOc1c(OC)cc(NC(C)CCCNC(=O)C(N)Cc2cc3ccccc3[nH]2)c2nc(C(C)(C)C)ccc12 (stereo not shown)"
target_entity = "MRSA (ATCC33591)"
units_text = "mg/L"
value_comparator = "="
reading = 20

[[record]]
compound = "CCCCCCOc1c(OC)cc(NC(C)CCCNC(=O)C(N)Cc2ccccc2)c2nc(C(C)(C)C)ccc12 (stereo not shown)"
target_entity = "MRSA (ATCC33591)"
units_text = "mg/L"
value_comparator = "="
reading = 20

[[record]]
compound = "CCCCOc1c(OC)cc(NC(C)CCCN)c2nc(C(C)(C)C)cc(C)c12 (stereo not shown)"
target_entity = "MRSA (ATCC33591)"
units_text = "mg/L"
value_comparator = "="
reading = 5

[[record]]
compound = "CCCCCOc1c(OC)cc(NC(C)CCCN)c2nc(C(C)(C)C)ccc12 (stereo not shown)"
target_entity = "MRSA (ATCC33591)"
units_text = "mg/L"
value_comparator = ">"
reading = 20

[[record]]
compound = "CCCCCCCOc1c(OC)cc(NC(C)CCCNC(=O)C(N)CCCNC(=N)N)c2nc(C(C)(C)C)ccc12 (stereo not shown)"
target_entity = "MRSA (ATCC33591)"
units_text = "mg/L"
value_comparator = ">"
reading = 20

[[record]]
compound = "COc1cc(NC(C)CCCN)c2nc(C(C)(C)C)ccc2c1Oc1ccc(Cl)c(Cl)c1 (stereo not shown)"
target_entity = "MRSA (ATCC33591)"
units_text = "mg/L"
value_comparator = "="
reading = 10

[[record]]
compound = "CCCCCCCCOc1c(OC)cc(NC(C)CCCN)c2nc(C(C)(C)C)ccc12 (stereo not shown)"
target_entity = "MRSA (ATCC33591)"
units_text = "mg/L"
value_comparator = "="
reading = 5

[[record]]
compound = "CCCCCCOc1c(OC)cc(NC(C)CCCNC(=O)C(N)CCCNC(=N)N)c2nc(C(C)(C)C)ccc12 (stereo not shown)"
target_entity = "MRSA (ATCC33591)"
units_text = "mg/L"
value_comparator = ">"
reading = 20

[[record]]
compound = "CCCCCCOc1c(OC)cc(NC(C)CCCNC(=O)C(N)CCSC)c2nc(C(C)(C)C)ccc12 (stereo not shown)"
target_entity = "MRSA (ATCC33591)"
units_text = "mg/L"
value_comparator = "="
reading = 20

